system: K562; test: Growth inhibition of human K562 cells after 72 hrs by MTT assay; type: functional; details: K562, 72 h
MEASUREMENT LABEL: GI50

Cl.Cl.Cl.Clc1ccc2c(NCCOc3ccc(-c4nc5ccc(C6=NCCN6)cc5[nH]4)cc3)ccnc2c1 : 8.6 µM
CC(C)CNC(=N)c1ccc(OCCNc2ccnc3cc(Cl)ccc23)cc1.Cl.Cl.Cl : 77.3 µM
Cl.Cl.Clc1ccc2c(NCCOc3ccc(C4=NCCCN4)cc3)ccnc2c1 : > 100 µM
Cl.Cl.Cl.N=C(N)c1ccc2nc(-c3ccc(Oc4ccnc5cc(Cl)ccc45)cc3)[nH]c2c1 : > 100 µM
N#Cc1ccc2nc(-c3ccc(OCCNc4ccnc5cc(Cl)ccc45)cc3)[nH]c2c1 : 7.8 µM
Cl.Cl.Clc1ccc2c(Oc3ccc(-c4nc5ccc(C6=NCCCN6)cc5[nH]4)cc3)ccnc2c1 : 21.6 µM
Cl.Cl.Cl.N=C(NC1CCCC1)c1ccc(Oc2ccnc3cc(Cl)ccc23)cc1 : 18.8 µM
N#Cc1ccc(OCCNc2ccnc3cc(Cl)ccc23)cc1 : 7.2 µM
Cl.Cl.N=C(NC1CCCC1)c1ccc2nc(-c3ccc(Oc4ccnc5cc(Cl)ccc45)cc3)[nH]c2c1 : 54.6 µM
Cl.Cl.Clc1ccc2c(Oc3ccc(C4=NCCCN4)cc3)ccnc2c1 : 62 µM
Cl.Cl.Clc1ccc2c(Oc3ccc(-c4nc5ccc(C6=NCCN6)cc5[nH]4)cc3)ccnc2c1 : 27.6 µM
Cl.Cl.Cl.Clc1ccc2c(NCCOc3ccc(-c4nc5ccc(C6=NCCCN6)cc5[nH]4)cc3)ccnc2c1 : 13.3 µM
Cl.Cl.Cl.N=C(N)c1ccc(OCCNc2ccnc3cc(Cl)ccc23)cc1 : 49.5 µM
Cl.Cl.Cl.N=C(NC1CCCC1)c1ccc2nc(-c3ccc(OCCNc4ccnc5cc(Cl)ccc45)cc3)[nH]c2c1 : 11.4 µM
CC(C)CNC(=N)c1ccc2nc(-c3ccc(OCCNc4ccnc5cc(Cl)ccc45)cc3)[nH]c2c1.Cl.Cl.Cl : 15.1 µM
CC(C)NC(=N)c1ccc2nc(-c3ccc(Oc4ccnc5cc(Cl)ccc45)cc3)[nH]c2c1.Cl.Cl.Cl : 69 µM
CC(C)NC(=N)c1ccc(Oc2ccnc3cc(Cl)ccc23)cc1.Cl.Cl.Cl : 82.9 µM
Cl.Cl.N=C(NC1CCCC1)c1ccc(OCCNc2ccnc3cc(Cl)ccc23)cc1 : 76.9 µM
Cl.Cl.Clc1ccc2c(Oc3ccc(C4=NCCN4)cc3)ccnc2c1 : 48.7 µM
Cl.Cl.N=C(N)c1ccc(Oc2ccnc3cc(Cl)ccc23)cc1 : 62.5 µM
N#Cc1ccc(Oc2ccnc3cc(Cl)ccc23)cc1 : 86.7 µM
Cl.Cl.Cl.N=C(N)c1ccc2nc(-c3ccc(OCCNc4ccnc5cc(Cl)ccc45)cc3)[nH]c2c1 : 34.7 µM
CC(C)NC(=N)c1ccc(OCCNc2ccnc3cc(Cl)ccc23)cc1.Cl.Cl.Cl : > 100 µM
CC(C)CNC(=N)c1ccc2nc(-c3ccc(Oc4ccnc5cc(Cl)ccc45)cc3)[nH]c2c1.Cl.Cl.Cl : 59.7 µM
CC(C)NC(=N)c1ccc2nc(-c3ccc(OCCNc4ccnc5cc(Cl)ccc45)cc3)[nH]c2c1.Cl.Cl.Cl : 17.2 µM
CC(C)CNC(=N)c1ccc(Oc2ccnc3cc(Cl)ccc23)cc1.Cl.Cl.Cl : 16.9 µM
N#Cc1ccc2nc(-c3ccc(Oc4ccnc5cc(Cl)ccc45)cc3)[nH]c2c1 : > 100 µM
Cl.Cl.Clc1ccc2c(NCCOc3ccc(C4=NCCN4)cc3)ccnc2c1 : 51.9 µM
